# System: MCF7
# measurementNotes: Cytotoxicity against human MCF7 cells after 72 hrs by MTT assay
# Format: functional, cell-based
# cond: MCF7, 72 h
testReadout: IC50 (µM)

>>> quantitativeresult("COc1cccc(/C=C2\\CCC/C(=C\\c3ccc(Cl)c(Cl)c3)C2=O)c1OC")
9
>>> quantitativeresult("COc1ccc(/C=C2\\CCC/C(=C\\c3cccc(OC)c3OC)C2=O)cc1OC")
6.5
>>> quantitativeresult("COc1cccc(/C=C2\\CCC/C(=C\\c3ccccc3Br)C2=O)c1OC")
9.7
>>> quantitativeresult("COc1ccc(/C=C2\\CCC/C(=C\\c3cccc(Cl)c3)C2=O)cc1OC")
6

Data provenance is ChEMBL document CHEMBL4270616.
